// data source = PubChem BioAssay (NCI)

Tested on: MCF7 breast
Assay: NCI-60 one-dose screen, 48 h (100 = growth as untreated, 0 = no growth, -100 = all killed)
Conditions: 10 µM unless noted
Compounds without any hit were thinned out: in the full panel of roughly 83,000, 20% have a hit.
Kindly note that classification relies on growth with these boundaries: band 1 = under 10%, band 2 = from 10% up to 90%, band 3 = 90% and over

Tag the class for `COc1ccc(CNCCCN2C(=O)c3ccc4c5c(ccc(c35)C2=O)C(=O)N(CCCNCc2ccc(OC)c(OC)c2OC)C4=O)c(OC)c1OC`
band 1

Class label required: `Cc1ccc(NCc2cn(-c3ccc(C(=O)O)cc3)nc2-c2ccc(C(=O)O)cc2)cc1`
band 3

The entry to classify is `COc1cc(-c2nc(/C=C3/C(=O)Nc4ccccc43)c3ccccn23)cc(OC)c1OC` ; which class holds it?
band 2

# bin label for `CC[n+]1c(C)ccc2cc(C)ccc21`
band 3

// bin(item) where item = `Cc1cc2c(-c3nc4ccccc4n3C)c(O)c(O)cc2c(O)c1-c1c(C)cc2c(-c3nc4ccccc4n3C)c(O)c(O)cc2c1O`
band 2

Lab log: `CCN(CC)CCCNc1c2ccc(Cl)cc2nc2ccc(OC)cc12` — assign growth category
band 1

Given `Nc1cc2c(cc1Br)[nH]c(=O)c1ccccc12` , name the class its growth places it in.
band 2

Class? Entry: `O=c1oc2ccc3ccccc3c2cc1-c1ccnc2[nH]c(=S)[nH]c(=O)c12`
band 3

Consider `COC(=O)/C(Br)=C/c1c[nH]c2ccc(Br)cc12` . To which growth class does it belong?
band 2

Into which category would you place `COc1ccc(Nc2c3ccccc3nc3ccccc23)cc1` ?
band 2

Which bin should I file `CCN(CCO)CCNc1ccc(C)c2sc3cc(OC)ccc3c(=O)c12` under?
band 2

Into which bin does this molecule go? CCOC(=O)C1C(=O)C(=O)N(C(C)C)C1C(=O)OCC (stereo unspecified)
band 3

GET /class?item= `CCCCCCNc1nc(N2CCOCC2)c2[nH]c(NCCCCCC)nc2n1`
band 1

Form field 'band' for `Cn1cnc2nc[nH]c2c1=S`
band 3

Exam item: assign `COC(=O)c1ccc2[nH]c(O)c(C(=Nc3ccc(N(C)C(=O)CN4CCN(C)CC4)cc3)c3cccc(OC)c3)c2c1` to the correct category.
band 1

Which class holds `COC(=O)c1cc(Nc2ccc(O)c3c2C(=O)c2c([N+](=O)[O-])ccc(O)c2C3=O)cc(C(=O)OC)c1` ?
band 2

Which of the defined bands does the recorded growth of `COc1ccc(OC)c(Cn2cc3c(c2)-c2oncc2CC3)c1` sit within?
band 1

Where would `COc1ccc(/C(=C(\c2ccccc2)[N+](=O)[O-])c2ccc(OCCN3CCCC3)cc2)cc1` land among the classes by reported growth?
band 2

Record `Cc1ccc(C(=O)Nc2ccc(CN3CCN(C)CC3)c(C(F)(F)F)c2)cc1C#Cc1cncc2ncccc12` — which class?
band 1
